Would you kindly list koff for each of these binders?
- TARGET UNDER TEST: T1, factor H binding protein (fHbp) variant 1.1 (Neisseria meningitidis MC58, fHbp v1.1, strain)
- T1 construct: also called fHbp v1.1; fHbp v1; source: E. coli BL21(DE3), purified (Ni-NTA; SEC when necessary)
- T1 chain: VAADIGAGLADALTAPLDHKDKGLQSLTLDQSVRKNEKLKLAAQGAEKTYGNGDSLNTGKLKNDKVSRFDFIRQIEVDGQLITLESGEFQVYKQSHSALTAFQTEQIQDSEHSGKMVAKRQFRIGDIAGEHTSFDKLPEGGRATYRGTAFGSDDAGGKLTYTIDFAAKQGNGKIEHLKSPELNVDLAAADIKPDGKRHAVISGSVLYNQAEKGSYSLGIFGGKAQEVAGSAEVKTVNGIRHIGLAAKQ
- ASSAY DETAILS: SPR
- RECORDED CONDITIONS: both partners purified
Numbers only, in s⁻¹.

Example cases with answers are listed next.
BINDER	MEASURE	RESULT
human anti-fHbp mAb 3F1 (antibody, V domains shown, source: Expi293, transient transfection, purified (protein G Sepharose)) VH: EVHLVESGGGLVKPGGSLRLSCAASGFTFSSYTMNWVRQAPGKGLEWVSSISSSSGYIYYADSLKGRFTISRDNAKNSLFLQMNSLRAEDTAVYFCARDKVLPAPPGFYGLDVWGPGTTVTVSS VL: QSVVTQPPSVSAAPGQKVTISCSGSSSNIEDNFVSWYQQLPGTAPKLLIYDNNQRPSGIPDRFSGSKSGTSATLGITGLQTGDEADYYCATWDNSLSARVFGGGTKLTVL	koff	0.000917
human anti-fHbp mAb 1D1 (antibody, V domains shown, source: Expi293, transient transfection, purified (protein G Sepharose)) VH: QVQLVGSGGGLVKPGGSLRLSCAASGFTFSSYTMNWVRQAPGKGLEWVSSISSSSGYIYYADSLKGRFTISRDDAKNSLFLQMNSLRAEDTAVYFCARDKVLPAPPGFYGLDVWGPGTTVTVSS VL: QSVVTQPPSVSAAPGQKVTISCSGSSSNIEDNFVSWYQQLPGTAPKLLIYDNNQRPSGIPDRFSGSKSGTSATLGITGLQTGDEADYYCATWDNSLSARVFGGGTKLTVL	koff	0.00154

Here's the next entry for you.
Exercise: Param item = human anti-fHbp mAb 4B3 (antibody, V domains shown, source: Expi293, transient transfection, purified (protein G Sepharose)) VH: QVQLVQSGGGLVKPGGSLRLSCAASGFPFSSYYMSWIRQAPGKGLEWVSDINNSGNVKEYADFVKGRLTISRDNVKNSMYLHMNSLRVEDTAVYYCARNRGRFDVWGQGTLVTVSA VL: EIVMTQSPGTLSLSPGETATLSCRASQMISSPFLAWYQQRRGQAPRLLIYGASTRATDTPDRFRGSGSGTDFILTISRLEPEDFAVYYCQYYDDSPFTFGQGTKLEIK ; retrieve measured koff.
Solution: 0.000217

Values compiled from paper PMC7556464.
